These entries and their values trace back to BigSolDB 2.1.

Conditions: in n-propanol, 298.15 K
endpoint.name: solubility (mole fraction)
// return just the number, without any unit appended

Which solubility (mole fraction) value belongs to CCOc1nc2cccc(C(=O)OC(C)OC(=O)OC3CCCCC3)c2n1Cc1ccc(-c2ccccc2-c2nn[nH]n2)cc1 (stereo unspecified) ? 0.00172

* * *

Conditions: in isopropanol, 308.15 K
endpoint.name: solubility (mole fraction)
Quick one: just the number, no unit, thanks!

Name the recorded solubility (mole fraction) for CCOc1nc2cccc(C(=O)OC(C)OC(=O)OC3CCCCC3)c2n1Cc1ccc(-c2ccccc2-c2nn[nH]n2)cc1 (stereo unspecified) . 0.0017

* * *

Details: in acetonitrile, 333.15 K
endpoint.name: solubility (mole fraction)
Kindly provide the number alone.

// query solubility (mole fraction) value for entry CCOc1nc2cccc(C(=O)OC(C)OC(=O)OC3CCCCC3)c2n1Cc1ccc(-c2ccccc2-c2nn[nH]n2)cc1 (stereo unspecified) 0.00442
